- experimental system: OsWOX13 (Oryza sativa, UniProt Q5QMM3 1-267)
- Sequence: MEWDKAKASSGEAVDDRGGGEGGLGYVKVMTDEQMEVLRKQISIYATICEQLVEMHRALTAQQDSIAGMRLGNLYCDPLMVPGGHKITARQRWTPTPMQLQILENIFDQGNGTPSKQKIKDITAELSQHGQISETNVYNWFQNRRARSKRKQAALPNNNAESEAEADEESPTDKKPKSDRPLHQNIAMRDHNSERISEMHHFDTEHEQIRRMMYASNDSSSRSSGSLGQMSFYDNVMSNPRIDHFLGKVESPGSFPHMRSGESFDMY
- assay explanation: protein-binding microarray (RPBM); PBS, 2% BSA, 51.3 ng/ul salmon testes DNA, 50 uM zinc acetate, 200 nM TF, 25 C, 1 h; high values mean tight binding
- condition set: protein: recombinant; tags: N-terminal polyhistidine and DsRed monomer fusion (pET32a); label: CyDye5-dUTP incorporated in the synthesized complementary strand; 3' TTTTT single-stranded linker to array surface; dsDNA, one strand shown
The full ranking holds about 35,000 sequences; the median of “fluorescence intensity (a.u.)” is about 10,000, and the highest 2% start at about 52,000. The sample holds the highest values, similar sequences and a random draw of the others, so the mix is not that of the screen.
quantity: binding signal

                            primary_sequence        quantity                               result
 0  TGATTAATTAGCGAGAGTAATTAATTAATTATAGCCTGCGCGGAGTCACCTAGTGCAG  binding signal  61600 fluorescence intensity (a.u.)
 1  CCACCGTGATTTTCGCTCCCATCACCGCGCGAGGACTCCGCGGAGTCACCTAGTGCAG  binding signal   3320 fluorescence intensity (a.u.)
 2  TTTATATTATTTGTCAATCTTATTGTCAACTTATTAATCACGGAGTCACCTAGTGCAG  binding signal   5140 fluorescence intensity (a.u.)
 3  CAGATCAATTTATCGAGATTGATCAAAAGCAAGATGATGCCGGAGTCACCTAGTGCAG  binding signal  35000 fluorescence intensity (a.u.)
 4  GTGATGATTTATTTTCGAACTATCTAGCTATTTATCTAGACGGAGTCACCTAGTGCAG  binding signal   9370 fluorescence intensity (a.u.)
 5  CATGATTAATTTTAGGCCGGTCATTGCTCGTGTCCTTGTTCGGAGTCACCTAGTGCAG  binding signal  65300 fluorescence intensity (a.u.)
 6  CATGAGTAAATCAATCAGGGATGGCAACATTCAGGTTTAGCGGAGTCACCTAGTGCAG  binding signal  12200 fluorescence intensity (a.u.)
 7  CTTTATTGATTGAGAGGAACTATCTACCTCTGTAATGACACGGAGTCACCTAGTGCAG  binding signal  39200 fluorescence intensity (a.u.)
 8  ATTGCAGATTGATTTATCTCGTCAAGATTGATGAGCATGCCGGAGTCACCTAGTGCAG  binding signal  63500 fluorescence intensity (a.u.)
 9  ATGGATATAAATTGATGAGTACAGTCCTGAGAACTGCAAGCGGAGTCACCTAGTGCAG  binding signal  32600 fluorescence intensity (a.u.)
10  GGCTATTAGATTGGTTATAAATGAATTGGAGCCAATAGTGCGGAGTCACCTAGTGCAG  binding signal  39100 fluorescence intensity (a.u.)
11  ATATAGTTGTGATTAATTAGTGAGTAGAGTGTGATACCTGCGGAGTCACCTAGTGCAG  binding signal  22100 fluorescence intensity (a.u.)
12  CCAAAATTTGATAGAATCTATTCCGAAGCGTCCAATGTTTCGGAGTCACCTAGTGCAG  binding signal  33400 fluorescence intensity (a.u.)
13  CTGACTGGCTCTGATTAATTAATTGATGATCGATCGAGCGCGGAGTCACCTAGTGCAG  binding signal  49800 fluorescence intensity (a.u.)
14  TTAAAATTATTTTATAATTAATATTTATTATTATTATTAGCGGAGTCACCTAGTGCAG  binding signal  12400 fluorescence intensity (a.u.)
15  TGTTTGGATGATTTTATGGATGATCACTTCTCTTTATTTACGGAGTCACCTAGTGCAG  binding signal   3280 fluorescence intensity (a.u.)
16  TGCTTTATTATTTGATTGATTGATCACTTGTTGGATGGGACGGAGTCACCTAGTGCAG  binding signal  64200 fluorescence intensity (a.u.)
17  AAACCCTTAATTGCTCATGATTTTGCCATTATAATATAGGCGGAGTCACCTAGTGCAG  binding signal  44600 fluorescence intensity (a.u.)
18  AAGCTATTAGATTGGCTATAGATGAATTGAAGTTAGTAGTCGGAGTCACCTAGTGCAG  binding signal  26100 fluorescence intensity (a.u.)
19  GATTAATTAGATTTAATAAATTCATCTCGCAGTTTACAGGCGGAGTCACCTAGTGCAG  binding signal  62200 fluorescence intensity (a.u.)
20  CCATTACGTGATCACAGATTGATCAAGAAATGCTTGACGACGGAGTCACCTAGTGCAG  binding signal  19600 fluorescence intensity (a.u.)
21  TGAGCTATTAGATTGGTTATAGATGAATTGAAGTTAGTAGCGGAGTCACCTAGTGCAG  binding signal  14100 fluorescence intensity (a.u.)
22  TTTATAATAGTTAATATTTAATTGATCATTTGCTAATGAGCGGAGTCACCTAGTGCAG  binding signal  24900 fluorescence intensity (a.u.)
23  GTAATTGATTTTCTGGCGCGATTAAGAGCTTGGTATATAGCGGAGTCACCTAGTGCAG  binding signal  59200 fluorescence intensity (a.u.)
24  ACTCCCTATTAATTTCCATCACCTTTACCAAACAAGATATCGGAGTCACCTAGTGCAG  binding signal   6910 fluorescence intensity (a.u.)
25  TTCGATCCTGACTGGAATTGGATGCCTAGTTTGCCTTGCCCGGAGTCACCTAGTGCAG  binding signal   4190 fluorescence intensity (a.u.)
26  AGGGTTAAATTGTCAAAATTTGTGCGACACAAACACACTCCGGAGTCACCTAGTGCAG  binding signal  10900 fluorescence intensity (a.u.)
27  CTGCCTGTAAATTTCTGTGATTTGATGTTTGCCTCTGTTGCGGAGTCACCTAGTGCAG  binding signal  11300 fluorescence intensity (a.u.)
28  ATGATATAATTAATTAATTAGCGCGCGGTTCCACCTCCCGCGGAGTCACCTAGTGCAG  binding signal  60200 fluorescence intensity (a.u.)
29  AATTTTGATAGGGTAGAATTGAAAATGTTTATTTGGATTGCGGAGTCACCTAGTGCAG  binding signal  10500 fluorescence intensity (a.u.)
30  ACATCACTAATTAATGTAATTTAAGTGGCTCATTTGCTCACGGAGTCACCTAGTGCAG  binding signal  31900 fluorescence intensity (a.u.)
31  TTAGATTGGTTATAGATGAATTGGAGCTAGTAGTGGGTTGCGGAGTCACCTAGTGCAG  binding signal  56200 fluorescence intensity (a.u.)
32  GAGTACAGATGAAATTTGTAGAAATTGGAATGGTCATGTACGGAGTCACCTAGTGCAG  binding signal   3810 fluorescence intensity (a.u.)
33  CCAAATGATTAATTTGGAGGACTTATTTGGACGTTTTGAACGGAGTCACCTAGTGCAG  binding signal  42300 fluorescence intensity (a.u.)
34  GAATAATCAATTGCCGAATACGTTCTGGACATGGATATTGCGGAGTCACCTAGTGCAG  binding signal   6880 fluorescence intensity (a.u.)
35  TTATTTGTGGCTTGAAGATTGACAGCTTTTGTTGATTGCTCGGAGTCACCTAGTGCAG  binding signal   9340 fluorescence intensity (a.u.)
36  ATAAATAAATACTCTAATTGCAAGCAACCAACGTCCCAACCGGAGTCACCTAGTGCAG  binding signal   5780 fluorescence intensity (a.u.)

All figures here come from paper PMC7819943.
